Measured Fluorescence (RFU) accompanies every entry in the list below.
- Experimental Target: Opr86 outer membrane protein on P. stutzeri cells (P. stutzeri)
- Test Details: fluorometry at 525 nm of 1x10^9 P. stutzeri cells labeled with peptide-QD525 conjugate
Ends that are not written are not given here.

Binder: RKKSRIR (conjugated to a quantum dot (QD525)) [OPP6 peptide-quantum dot conjugate]
Fluorescence (RFU): 4130
--
Binder: PRIRKSH (also: conjugated to quantum dot) [OPP1 peptide-quantum dot conjugate]
Fluorescence (RFU): 12300
--
Binder: LPSTIHR (conjugated to a quantum dot (QD525)) [OPP3 peptide-quantum dot conjugate]
Fluorescence (RFU): 2250
--
Binder: LRPLMNR (conjugated to a quantum dot (QD525)) [OPP4 peptide-quantum dot conjugate]
Fluorescence (RFU): 1380
--
Binder: MHNLNLL (conjugated to a quantum dot (QD525)) [OPP2 peptide-quantum dot conjugate]
Fluorescence (RFU): 1850
--
Binder: IITMKRR (conjugated to a quantum dot (QD525)) [OPP5 peptide-quantum dot conjugate]
Fluorescence (RFU): 4410
